Target: human alpha-7 nAChR (Homo sapiens, UniProt P36544)
Construct: expressed in transfected cells; host or cells: Xenopus laevis oocytes (cRNA injection)
Sequence (P36544 23-502): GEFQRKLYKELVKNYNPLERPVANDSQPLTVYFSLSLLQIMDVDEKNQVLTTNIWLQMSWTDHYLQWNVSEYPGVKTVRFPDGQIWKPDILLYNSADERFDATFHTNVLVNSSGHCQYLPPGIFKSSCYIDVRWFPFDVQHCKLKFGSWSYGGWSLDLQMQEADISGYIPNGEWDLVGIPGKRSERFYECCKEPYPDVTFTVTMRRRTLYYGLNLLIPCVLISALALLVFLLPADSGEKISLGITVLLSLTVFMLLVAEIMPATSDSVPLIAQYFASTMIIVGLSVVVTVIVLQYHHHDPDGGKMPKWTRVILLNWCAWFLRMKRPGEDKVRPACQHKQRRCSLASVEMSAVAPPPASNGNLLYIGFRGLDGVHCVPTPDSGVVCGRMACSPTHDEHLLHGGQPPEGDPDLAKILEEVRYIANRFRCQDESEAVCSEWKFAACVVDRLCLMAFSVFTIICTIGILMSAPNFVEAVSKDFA
Experiment: Two-electrode voltage clamp of alpha-7 nAChR expressed in Xenopus oocytes (net charge)
Format: cell-based
Conditions: compound alone acting as an allosteric agonist; area under the curve of current vs. time
value type: Charge Alone
Hey, just send me the number, nothing else.

Examples with answers:
1. CC(C)OC(=O)Nc1ccc([C@H]2Nc3ccc(S(N)(=O)=O)cc3[C@H]3C=CC[C@H]32)cc1 (stereo in doubt) [Compound 68]: 80
2. CC(C)(C)NC(=O)Oc1ccc([C@H]2Nc3ccc(S(N)(=O)=O)cc3[C@H]3C=CC[C@H]32)cc1 (stereo in doubt) [Compound 65]: 332
3. NS(=O)(=O)c1ccc2c(c1)[C@H]1C=CC[C@H]1[C@@H](c1ccc(N=C=S)cc1)N2 (stereo in doubt) [Compound 26]: 0
4. CC(C)(C)CC(=O)Nc1ccc([C@H]2Nc3ccc(S(N)(=O)=O)cc3[C@H]3C=CC[C@H]32)cc1 (stereo in doubt) [Compound 64]: 597
5. NS(=O)(=O)c1ccc2c(c1)[C@H]1C=CC[C@H]1[C@@H](c1cccs1)N2 (stereo in doubt) [Compound 17]: 0.031

// Charge Alone lookup, key: NS(=O)(=O)c1ccc2c(c1)[C@H]1C=CC[C@H]1[C@@H](c1ccc(CCCBr)cc1)N2 [Compound 71]
1

// Charge Alone lookup, key: NS(=O)(=O)c1ccc2c(c1)[C@H]1C=CC[C@H]1[C@@H](c1ccc3sccc3c1)N2 (stereo in doubt) [Compound 96]
116

====

Molecular target: human alpha-7 nAChR (Homo sapiens)
Construct: expressed in transfected cells; host or cells: Xenopus laevis oocytes (cRNA injection)
Test: Two-electrode voltage clamp of alpha-7 nAChR expressed in Xenopus oocytes (net charge)
Format: cell-based
Settings: compound alone acting as an allosteric agonist; area under the curve of current vs. time
value type: Charge Alone
Hey, just send me the number, nothing else.

1) CC(C)(C)OC(=O)Nc1ccc([C@H]2Nc3ccc(S(N)(=O)=O)cc3[C@H]3C=CC[C@H]32)cc1 [Compound 24]: 212
2) NS(=O)(=O)c1ccc2c(c1)[C@H]1C=CC[C@H]1[C@@H](c1csc3ccccc13)N2 (stereo in doubt) [Compound 39]: 22
3) CC(C)(C)CC(=O)Oc1ccc([C@H]2Nc3ccc(S(N)(=O)=O)cc3[C@H]3C=CC[C@H]32)cc1 (stereo in doubt) [Compound 69]: 25
4) NS(=O)(=O)c1ccc2c(c1)[C@H]1C=CC[C@H]1[C@@H](c1ccc(S(F)(F)(F)(F)F)cc1)N2 (stereo in doubt) [Compound 31]: 89
5) NS(=O)(=O)c1ccc2c(c1)[C@H]1C=CC[C@H]1[C@@H](c1ccc(I)cc1)N2 [Compound 46]: 242
6) CC(C)(C)CCCc1ccc([C@H]2Nc3ccc(S(N)(=O)=O)cc3[C@H]3C=CC[C@H]32)cc1 (stereo in doubt) [Compound 66]: 330

// next item, Charge Alone requested
So what Charge Alone did NS(=O)(=O)c1ccc2c(c1)[C@H]1C=CC[C@H]1[C@@H](c1csc(Br)n1)N2 (stereo in doubt) [Compound 85] get with human alpha-7 nAChR (Homo sapiens)?
10

====

Biological target: human alpha-7 nAChR (Homo sapiens)
Construct: expressed in transfected cells; host or cells: Xenopus laevis oocytes (cRNA injection)
Assay: Two-electrode voltage clamp of alpha-7 nAChR expressed in Xenopus oocytes (net charge)
Assay type: cell-based
Conditions: compound alone acting as an allosteric agonist; area under the curve of current vs. time
value type: Charge Alone

1. CCCNS(=O)(=O)c1ccc2c(c1)[C@H]1C=CC[C@H]1[C@H](c1ccc(Br)cc1)N2 (stereo in doubt): Inactive
2. O=S(=O)(c1ccc2c(c1)[C@H]1C=CC[C@H]1[C@@H](c1ccc(Br)cc1)N2)N1CCC1: Inactive
3. NS(=O)(=O)c1ccc2c(c1)[C@H]1C=CC[C@H]1[C@@H](c1ccc(Br)cc1)N2: 450
4. CCCNS(=O)(=O)c1ccc2c(c1)[C@H]1C=CC[C@H]1[C@H](c1c(C)c(C)cc(C)c1C)N2 (stereo in doubt): Inactive

====

Target: human alpha-7 nAChR (Homo sapiens)
Construct: expressed in transfected cells; host or cells: Xenopus laevis oocytes (cRNA injection)
Experiment: Two-electrode voltage clamp of alpha-7 nAChR expressed in Xenopus oocytes (net charge)
Type: cell-based
Settings: compound together with choline or ACh; includes PAM and ago-PAM activity; area under the curve of current vs. time
value type: Charge +C

Examples with answers:
1. NS(=O)(=O)c1ccc2c(c1)C1C=CCC1C(c1ccc(C(=O)O)cc1)N2 (stereo not shown): Inactive
2. [N-]=[N+]=Nc1ccc([C@@H]2Nc3ccc(S(N)(=O)=O)cc3[C@@H]3C=CC[C@@H]32)cc1: Inactive
3. NS(=O)(=O)c1ccc2c(c1)[C@H]1C=CC[C@H]1[C@@H](c1ccc(S(F)(F)(F)(F)F)cc1)N2 (stereo in doubt): 206
4. NS(=O)(=O)c1ccc2c(c1)[C@H]1C=CC[C@H]1[C@@H](c1ccccn1)N2 (stereo in doubt): 4
5. NS(=O)(=O)c1ccc2c(c1)[C@H]1C=CC[C@H]1[C@@H](c1ccc(NC(=O)OC3C4CC5CC(C4)CC3C5)cc1)N2 (stereo in doubt): 25
6. CCCNS(=O)(=O)c1ccc2c(c1)[C@H]1C=CC[C@H]1[C@H](c1c(C)c(C)cc(C)c1C)N2 (stereo in doubt): Inactive
7. NS(=O)(=O)c1ccc2c(c1)[C@H]1C=CC[C@H]1[C@@H](c1cccs1)N2 (stereo in doubt): 21.096
8. NS(=O)(=O)c1ccc2c(c1)[C@H]1C=CC[C@H]1[C@@H](c1csc(Br)c1)N2 (stereo in doubt): 157
9. O=S(=O)(NC1CCC1)c1ccc2c(c1)[C@H]1C=CC[C@H]1[C@@H](c1ccc(Br)cc1)N2: Inactive
10. C=C(C)CNS(=O)(=O)c1ccc2c(c1)[C@H]1C=CC[C@H]1[C@@H](c1ccc(Br)cc1)N2 (stereo in doubt): Inactive

So what Charge +C did CCCCNS(=O)(=O)c1ccc2c(c1)[C@H]1C=CC[C@H]1[C@@H](c1ccc(Br)cc1)N2 (stereo in doubt) get with human alpha-7 nAChR (Homo sapiens)?
Inactive

So what Charge +C did CCC(C)CNS(=O)(=O)c1ccc2c(c1)[C@H]1C=CC[C@H]1[C@@H](c1ccc(Br)cc1)N2 (stereo in doubt) get with human alpha-7 nAChR (Homo sapiens)?
Inactive

So what Charge +C did N#Cc1ccc([C@@H]2Nc3ccc(S(N)(=O)=O)cc3[C@H]3C=CC[C@H]32)cc1 (stereo in doubt) get with human alpha-7 nAChR (Homo sapiens)?
Inactive

====

Target: human alpha-7 nAChR (Homo sapiens)
Construct: expressed in transfected cells; host or cells: Xenopus laevis oocytes (cRNA injection)
Assay: Two-electrode voltage clamp of alpha-7 nAChR expressed in Xenopus oocytes (net charge)
Format: cell-based
Conditions: compound together with choline or ACh; includes PAM and ago-PAM activity; area under the curve of current vs. time
Method: The human alpha-7 nAChR receptor clone was obtained from Dr. Jon Lindstrom {University of Pennsylvania, Philadelphia, Pa.), aid the RIC-3 clone from Dr. Millet Treinin (Hebrew University, Jerusalem, Israel) for the purpose of co-injection with a7 to improve the level and speed of receptor expression (Halevi et al., 2003). After linearization and purification of cloned cDNA's, RNA, transcripts were prepared rising the appropriate mMessage mMachine kit tiom Ambion (Austin, Tex.). […]
// returns N unless Charge +C is strictly below 300, in which case Y

Here's what some known entries look like.
1. NS(=O)(=O)c1ccc2c(c1)[C@H]1C=CC[C@H]1[C@@H](c1ccc(Br)cc1)N2: N
2. NS(=O)(=O)c1ccc([C@H]2Nc3ccc(S(N)(=O)=O)cc3[C@H]3C=CC[C@H]32)cc1 (stereo in doubt): Y
3. NS(=O)(=O)c1ccc2c(c1)[C@H]1C=CC[C@H]1[C@@H](c1ccc(-c3ccccc3)cc1)N2 (stereo in doubt): Y
4. CC(C)(C)CCCc1ccc([C@H]2Nc3ccc(S(N)(=O)=O)cc3[C@H]3C=CC[C@H]32)cc1 (stereo in doubt): N
5. CCOC(=O)Nc1ccc([C@H]2Nc3ccc(S(N)(=O)=O)cc3[C@H]3C=CC[C@H]32)cc1 (stereo in doubt): Y
6. NS(=O)(=O)c1ccc2c(c1)[C@H]1C=CC[C@H]1[C@@H](c1ccccc1[N+](=O)[O-])N2 (stereo in doubt): Y
7. NS(=O)(=O)c1ccc2c(c1)[C@H]1C=CC[C@H]1[C@@H](c1ccc(NC(=O)OC3CCCCC3)cc1)N2 (stereo in doubt): Y
8. CC(C)(C)OC(=O)Nc1ccc([C@H]2Nc3ccc(S(N)(=O)=O)cc3[C@H]3C=CC[C@H]32)cc1: N
9. CC(C)(C)CC(=O)Oc1ccc([C@H]2Nc3ccc(S(N)(=O)=O)cc3[C@H]3C=CC[C@H]32)cc1 (stereo in doubt): N
10. NS(=O)(=O)c1ccc2c(c1)[C@H]1C=CC[C@H]1[C@@H](c1ccc3sccc3c1)N2 (stereo in doubt): Y

In the record for `NS(=O)(=O)c1ccc2c(c1)[C@H]1C=CC[C@H]1[C@@H](c1ccc(C3(C(F)(F)F)N=N3)cc1)N2` , is Charge +C less than 300?
N

In the record for CC(C)OC(=O)Nc1ccc([C@H]2Nc3ccc(S(N)(=O)=O)cc3[C@H]3C=CC[C@H]32)cc1 (stereo in doubt) , is Charge +C less than 300?
Y

In the record for NS(=O)(=O)c1ccc2c(c1)[C@H]1C=CC[C@H]1[C@@H](c1ccc(NC(=O)OC34CC5CC(CC(C5)C3)C4)cc1)N2 (stereo in doubt) , is Charge +C less than 300?
Y

In the record for `NS(=O)(=O)c1ccc2c(c1)[C@H]1C=CC[C@H]1[C@@H](c1cccnc1)N2` , is Charge +C less than 300?
Y

// data source = patent US11299496B2
